The measurements presented in this section are drawn from patent US20230183354A1.

# Target desc: T1, human CD103 (integrin Alpha-E) / human integrin Beta-7 heterodimer on cells (human, UniProt P38570 19-1179; P26010 20-798)
# T1 construct: the assay field tells which cells; also called hCD103/hBeta7; CHO.K1-hCD103/hBeta7
# T1 sequence (P38570 19-1179 limits assumed, chain 1 of 2): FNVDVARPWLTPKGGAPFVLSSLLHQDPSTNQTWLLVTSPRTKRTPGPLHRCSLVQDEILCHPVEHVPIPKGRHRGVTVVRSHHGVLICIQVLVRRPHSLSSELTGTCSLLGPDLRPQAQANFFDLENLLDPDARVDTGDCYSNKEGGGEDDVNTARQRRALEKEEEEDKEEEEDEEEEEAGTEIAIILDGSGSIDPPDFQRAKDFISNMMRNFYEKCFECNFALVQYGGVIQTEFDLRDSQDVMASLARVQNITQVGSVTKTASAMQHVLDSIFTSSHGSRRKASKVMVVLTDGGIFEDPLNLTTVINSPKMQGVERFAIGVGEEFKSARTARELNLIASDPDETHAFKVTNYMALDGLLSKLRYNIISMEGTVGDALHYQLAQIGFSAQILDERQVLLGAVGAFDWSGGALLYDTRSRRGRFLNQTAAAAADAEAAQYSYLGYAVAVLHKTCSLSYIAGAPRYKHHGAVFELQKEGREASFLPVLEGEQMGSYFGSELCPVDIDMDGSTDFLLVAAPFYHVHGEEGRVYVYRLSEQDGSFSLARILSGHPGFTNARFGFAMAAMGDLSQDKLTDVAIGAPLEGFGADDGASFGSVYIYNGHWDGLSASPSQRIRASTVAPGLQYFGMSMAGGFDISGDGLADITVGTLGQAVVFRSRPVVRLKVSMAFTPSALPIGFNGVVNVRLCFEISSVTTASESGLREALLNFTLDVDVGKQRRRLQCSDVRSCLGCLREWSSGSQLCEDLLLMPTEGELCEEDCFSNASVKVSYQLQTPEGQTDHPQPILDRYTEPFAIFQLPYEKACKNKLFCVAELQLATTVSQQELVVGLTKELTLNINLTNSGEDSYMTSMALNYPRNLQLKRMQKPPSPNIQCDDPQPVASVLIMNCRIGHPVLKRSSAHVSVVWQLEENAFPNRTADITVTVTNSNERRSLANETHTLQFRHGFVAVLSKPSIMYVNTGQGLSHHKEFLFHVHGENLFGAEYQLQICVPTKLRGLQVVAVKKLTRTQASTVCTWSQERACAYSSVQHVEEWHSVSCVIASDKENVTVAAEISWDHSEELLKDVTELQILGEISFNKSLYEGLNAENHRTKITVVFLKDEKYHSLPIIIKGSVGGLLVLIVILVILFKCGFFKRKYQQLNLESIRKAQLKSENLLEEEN
# T1 sequence (P26010 20-798 limits assumed, chain 2 of 2): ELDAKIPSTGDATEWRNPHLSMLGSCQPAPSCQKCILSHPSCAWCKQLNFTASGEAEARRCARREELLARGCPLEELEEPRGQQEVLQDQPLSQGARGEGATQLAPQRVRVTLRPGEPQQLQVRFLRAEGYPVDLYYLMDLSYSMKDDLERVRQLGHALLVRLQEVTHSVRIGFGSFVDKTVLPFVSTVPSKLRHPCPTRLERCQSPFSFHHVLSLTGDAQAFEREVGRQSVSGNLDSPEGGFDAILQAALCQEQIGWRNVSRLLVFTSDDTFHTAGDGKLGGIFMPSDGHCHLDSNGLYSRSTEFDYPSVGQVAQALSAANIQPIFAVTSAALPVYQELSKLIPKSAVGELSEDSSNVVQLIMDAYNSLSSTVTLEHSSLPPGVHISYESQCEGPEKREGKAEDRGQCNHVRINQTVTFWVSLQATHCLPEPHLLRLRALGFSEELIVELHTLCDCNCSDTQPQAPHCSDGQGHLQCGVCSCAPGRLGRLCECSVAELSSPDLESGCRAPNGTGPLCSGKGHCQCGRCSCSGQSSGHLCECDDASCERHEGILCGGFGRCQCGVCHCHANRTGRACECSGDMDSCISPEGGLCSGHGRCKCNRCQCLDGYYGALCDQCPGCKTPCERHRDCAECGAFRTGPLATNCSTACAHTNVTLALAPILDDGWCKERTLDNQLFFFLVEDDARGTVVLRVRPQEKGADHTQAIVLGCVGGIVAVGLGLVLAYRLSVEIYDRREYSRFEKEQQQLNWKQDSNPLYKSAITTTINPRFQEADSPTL
# Procedure text: flow cytometry competition on CD103+CD8+ T cells; pre-incubation with unlabeled 07A; table n=2
Test readout: % binding of the fluorescently labeled mAb (IgG pre-incubation = 100) (%)
Just the number please, in %, no unit attached.

What does the record list as % binding of the fluorescently labeled mAb (IgG pre-incubation = 100) for hCD103.01A (antibody, V domains shown, Also tested labelled with AF647, conjugated with Df and labelled with 89Zr; these are written under this molecule; also called clone 01A; hCD103.01 mAb) VH: EVQLQESGPSLVKPSQTLSLTCSVTGDSITSGYWNWIRKFPGNKLEYMGYITYSGSTYYNPSLKSRISITRDTSKNQYYLQLNSVTTEDTATYYCTRHYYGSDAMDYWGQGTSVTVSS VL: DIVMTQSHKFMSTSVGDRVSITCKASQDVSIAVAWYQQRPGQSPKLLIYSASYRYTGVPDRFTGSGSGTDFTFTISSVQAEDLAVYYCQQHYSTPWTFGGGTKLEIK ? 26.6
